Provenance of the data: paper PMC9166630

Biological target: CYP3A4 (Homo sapiens, UniProt P08684)
Construct: purchased Fisher Scientific; host or cells: insect cells (supersomes)
Sequence (P08684 whole entry): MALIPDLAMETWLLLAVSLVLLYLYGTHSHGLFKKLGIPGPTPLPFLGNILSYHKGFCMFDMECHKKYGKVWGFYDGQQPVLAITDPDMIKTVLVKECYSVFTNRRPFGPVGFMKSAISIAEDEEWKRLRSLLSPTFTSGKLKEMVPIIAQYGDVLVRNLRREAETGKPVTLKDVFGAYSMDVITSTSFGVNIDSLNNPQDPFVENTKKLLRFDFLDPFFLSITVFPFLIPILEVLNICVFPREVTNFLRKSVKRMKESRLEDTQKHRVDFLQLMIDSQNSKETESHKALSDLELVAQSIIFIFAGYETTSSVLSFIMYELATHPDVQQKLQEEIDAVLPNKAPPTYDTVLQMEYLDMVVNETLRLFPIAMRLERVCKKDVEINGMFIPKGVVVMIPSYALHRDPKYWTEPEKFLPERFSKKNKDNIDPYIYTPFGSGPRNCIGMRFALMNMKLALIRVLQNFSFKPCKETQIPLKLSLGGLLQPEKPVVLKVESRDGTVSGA
Test: Inhibition assay of human CYP450 enzymes, 3A4
Type: in vitro ADME
Conditions: the values are: IC50
Outcome measure: no inhibition of CYP3A4 at concentrations up to

>  <Smiles repr>
O=C(Cc1ccc(NC(=O)c2cccc(Cl)c2)cc1)NCc1ccccc1

>  <Readout value>
> 10 µM

$$$$
>  <Smiles repr>
O=C(Cc1ccc(NC(=O)c2cccc(Cl)n2)cc1)NCc1ccccc1

>  <Readout value>
> 10 µM

$$$$

* * *

Catalogue of solubility kinetic at 90 min values
Assay: Maximum kinetic aqueous solubility
Type: physicochemical
Details: phosphate buffer with 2% DMSO, aqueous buffer, kinetic from dmso stock, 2% DMSO/PBS, pH 7.4, read-out: Max. aq. Sol.

>  <Smiles repr>
O=C(Cc1ccc(NC(=O)c2cccc(Cl)c2)cc1)NCc1ccccc1

>  <Unit label>
µM

>  <Result qualifier>
<

>  <solubility kinetic at 90 min>
2

$$$$
>  <Smiles repr>
O=C(Cc1ccc(NC(=O)c2cccc(Cl)n2)cc1)NCc1ccccc1

>  <Unit label>
µM

>  <Result qualifier>
=

>  <solubility kinetic at 90 min>
2.6

$$$$

* * *

Test system: K562 leukemia cell line
Experiment: CellTiter-Blue cell viability assay, K562
Format: cell-based
Settings: Homo sapiens, CellTiter-Blue, 48 h, maximum tested concentration 20 µM, read-out: IC50 ± SEM, K562

>  <Smiles repr>
COc1cccc(C(=O)Nc2ccc(CC(=O)NCc3ccccc3)cc2)c1

>  <Target under test>
K562 leukemia cell line

>  <Unit label>
µM

>  <Result qualifier>
=

>  <IC50>
4.23

$$$$
>  <Smiles repr>
Cc1ccc(S(=O)(=O)Nc2ccc(CC(=O)NCc3ccccc3)cc2)cc1

>  <Target under test>
K562 leukemia cell line

>  <Unit label>
µM

>  <Result qualifier>
>

>  <IC50>
20

$$$$
>  <Smiles repr>
O=C(Cc1ccc(NC(=O)c2ccccc2)cc1)NCc1ccccc1

>  <Target under test>
K562 leukemia cell line

>  <Unit label>
µM

>  <Result qualifier>
>

>  <IC50>
20

$$$$
>  <Smiles repr>
O=C(Cc1ccc(NC(=O)c2ccc(OCCN3CCOCC3)c(Cl)c2)cc1)NCc1ccccc1

>  <Target under test>
K562 leukemia cell line

>  <Unit label>
µM

>  <Result qualifier>
=

>  <IC50>
13

$$$$
>  <Smiles repr>
O=C(Cc1ccc(NC(=O)c2cccc(OCCN3CCOCC3)c2)cc1)NCc1ccccc1

>  <Target under test>
K562 leukemia cell line

>  <Unit label>
µM

>  <Result qualifier>
=

>  <IC50>
17.4

$$$$
>  <Smiles repr>
O=C(Cc1ccc(NC(=O)c2ccnc(Cl)c2)cc1)NCc1ccccc1

>  <Target under test>
K562 leukemia cell line

>  <Unit label>
µM

>  <Result qualifier>
=

>  <IC50>
12.4

$$$$
>  <Smiles repr>
O=C(Cc1ccc(NC(=O)c2cccc(Cl)c2)cc1)NCc1ccccc1

>  <Target under test>
K562 leukemia cell line

>  <Unit label>
µM

>  <Result qualifier>
=

>  <IC50>
4.23

$$$$
>  <Smiles repr>
COc1ccc(C(=O)Nc2ccc(CC(=O)NCc3ccccc3)cc2)cc1OC

>  <Target under test>
K562 leukemia cell line

>  <Unit label>
µM

>  <Result qualifier>
>

>  <IC50>
20

$$$$

* * *

Consider the following compounds and their measured no inhibition of CYP2D6 at concentrations up to readings.
Target: CYP2D6 (Homo sapiens, UniProt P10635)
Construct: purchased Fisher Scientific; host or cells: insect cells (supersomes)
Sequence (P10635 whole entry): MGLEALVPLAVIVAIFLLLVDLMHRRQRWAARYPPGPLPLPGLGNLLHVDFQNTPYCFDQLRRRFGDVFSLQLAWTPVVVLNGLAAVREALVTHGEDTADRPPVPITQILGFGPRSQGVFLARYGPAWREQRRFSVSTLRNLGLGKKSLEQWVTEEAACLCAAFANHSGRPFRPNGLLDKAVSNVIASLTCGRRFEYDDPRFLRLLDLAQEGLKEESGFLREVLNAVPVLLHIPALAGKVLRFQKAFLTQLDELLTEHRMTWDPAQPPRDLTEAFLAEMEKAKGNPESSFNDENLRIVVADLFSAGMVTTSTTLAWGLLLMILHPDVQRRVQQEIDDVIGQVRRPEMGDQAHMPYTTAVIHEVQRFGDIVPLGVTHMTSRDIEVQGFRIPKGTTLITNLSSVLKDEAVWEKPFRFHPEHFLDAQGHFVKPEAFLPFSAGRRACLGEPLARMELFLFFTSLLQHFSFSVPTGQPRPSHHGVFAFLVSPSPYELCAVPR
Assay: Inhibition assay of human CYP450 enzymes, 2D6
Assay type: in vitro ADME
Conditions: the values are: IC50
Outcome measure: no inhibition of CYP2D6 at concentrations up to

>  <Smiles repr>
O=C(Cc1ccc(NC(=O)c2cccc(Cl)n2)cc1)NCc1ccccc1

>  <Readout value>
> 10 µM

$$$$
>  <Smiles repr>
O=C(Cc1ccc(NC(=O)c2cccc(Cl)c2)cc1)NCc1ccccc1

>  <Readout value>
> 10 µM

$$$$

* * *

The molecules below have reported IC50 for CYP2C9 (Homo sapiens).

>  <Smiles repr>
O=C(Cc1ccc(NC(=O)c2cccc(Cl)c2)cc1)NCc1ccccc1

>  <IC50>
> 10 µM

$$$$
>  <Smiles repr>
O=C(Cc1ccc(NC(=O)c2cccc(Cl)n2)cc1)NCc1ccccc1

>  <IC50>
> 10 µM

$$$$

* * *

# maps each entry to its IC50
Tested on: MCF7 (breast) cancer cells
Experiment: SRB cytotoxicity assay, MCF7
Format: cell-based, human
Details: 72 h, maximum tested concentration 50 µM, read-out: IC50 ± SEM, MCF7
Method: MCF7 (breast) or N87 (stomach) cancer cells were grown in Roswell Park Memorial Institute-1640 (RPMI-1640) medium (Thermo Fisher Scientific, Inc; Waltham, MA, USA), supplemented with 10% heat inactivated fetal bovine serum (FBS), 50 units/mL of penicillin and […] of streptomycin and maintained at 37°C in a humidified atmosphere containing 5% CO2. […] Cytotoxicity was determined using Sulforhodamine B (SRB) method as previously described by Skehan et al. ([66]). […]

>  <Compound>
Nc1ccc(CC(=O)NCc2ccccc2)cc1 [Compound 3a, 2-(4-aminophenyl)-N-benzylacetamide]

>  <Target under test>
MCF7 (breast) cancer cells

>  <Result qualifier>
>

>  <IC50, µM>
50

$$$$
>  <Compound>
CC(=O)Nc1ccc(CC(=O)NCc2ccccc2)cc1 [Compound 4a, 2-(4-acetamidophenyl)-N-benzylacetamide]

>  <Target under test>
MCF7 (breast) cancer cells

>  <Result qualifier>
=

>  <IC50, µM>
29.3

$$$$

* * *

Test: Stability in mouse liver microsomes
Type: in vitro ADME
Settings: male, CD-1; mouse liver microsomes with NADPH, 37°C; read-out: Stability MLM t1/2
Protocol: Both mouse and human liver microsomes were obtained from Merck KGaA, (Darmstadt, Germany), Cat. No. M9441 (Mouse liver microsomes) and M0317 (Human liver microsomes). Assays were conducted in triplicate in 96-deep well polypropylene plates. […] The amount of compound remaining in the supernatant was quantified by LC/MS/MS using a Waters Xevo TQ MS (electrospray positive mode) coupled to a Waters Aquity® UPLC (BEH column, C18). […]
half-life reference

>  <Compound>
O=C(Cc1ccc(NC(=O)c2cccc(Cl)n2)cc1)NCc1ccccc1 [Compound 4n]

>  <half-life>
3.1 min

$$$$
>  <Compound>
O=C(Cc1ccc(NC(=O)c2cccc(Cl)c2)cc1)NCc1ccccc1 [Compound 4e]

>  <half-life>
> 60 min

$$$$

* * *

Reported IC50 values follow for various molecules
System: MCF7 (breast) cancer cells
Test: SRB cytotoxicity assay, MCF7
Assay type: cell-based, human
Details: Homo sapiens, MCF7, 72 h, maximum tested concentration 50 µM, read-out: IC50 ± SEM, MCF7

>  <Molecule>
CC(=O)Nc1ccc(CC(=O)NCc2ccccc2)cc1 [Compound 4a, 2-(4-acetamidophenyl)-N-benzylacetamide]

>  <Result qualifier>
=

>  <IC50, µM>
29.3

$$$$
>  <Molecule>
O=C(Cc1ccc(NC(=O)c2ccccc2)cc1)NCc1ccccc1

>  <Result qualifier>
=

>  <IC50, µM>
5.11

$$$$
>  <Molecule>
Cc1ccc(S(=O)(=O)Nc2ccc(CC(=O)NCc3ccccc3)cc2)cc1

>  <Result qualifier>
>

>  <IC50, µM>
50

$$$$
>  <Molecule>
O=C(Cc1ccc(NC(=O)c2cccc(Cl)c2)cc1)NCc1ccccc1

>  <Result qualifier>
=

>  <IC50, µM>
7.41

$$$$

* * *

>  <Compound>
O=C(Cc1ccc(NC(=O)c2ccc(Cl)cc2)cc1)NCc1ccccc1 [Compound 4f]

>  <melting point, °C>
190

$$$$
>  <Compound>
O=C(Cc1ccc(NC(=O)c2ccc(OCCN3CCOCC3)c(Cl)c2)cc1)NCc1ccccc1 [Compound 4l]

>  <melting point, °C>
147

$$$$
>  <Compound>
Cc1ccc(S(=O)(=O)Nc2ccc(CC(=O)NCc3ccccc3)cc2)cc1 [Compound 4g]

>  <melting point, °C>
140

$$$$
>  <Compound>
CCC(=O)Nc1ccc(CC(=O)NCc2ccccc2)cc1 [Compound 4b]

>  <melting point, °C>
210

$$$$
>  <Compound>
COc1ccc(C(=O)Nc2ccc(CC(=O)NCc3ccccc3)cc2)cc1OC [Compound 4k]

>  <melting point, °C>
215

$$$$
>  <Compound>
O=C(Cc1ccc(NC(=O)c2cccc(F)c2)cc1)NCc1ccccc1 [Compound 4d]

>  <melting point, °C>
214

$$$$
>  <Compound>
O=C(Cc1ccc(NC(=O)c2ccc(Cl)o2)cc1)NCc1ccccc1 [Compound 4p]

>  <melting point, °C>
217

$$$$

* * *

System: K562 leukemia cell line
Test: CellTiter-Blue cell viability assay, K562
Type: cell-based
Conditions: Homo sapiens, CellTiter-Blue, 48 h, maximum tested concentration 20 µM, read-out: IC50 ± SEM, K562
# IC50 per record follows

>  <Smiles repr>
O=C(Cc1ccc(NC(=O)c2cccc(F)c2)cc1)NCc1ccccc1

>  <Target under test>
K562 leukemia cell line

>  <Unit label>
µM

>  <Result qualifier>
=

>  <IC50>
2.68

$$$$
>  <Smiles repr>
COc1ccc(C(=O)Nc2ccc(CC(=O)NCc3ccccc3)cc2)cc1Cl

>  <Target under test>
K562 leukemia cell line

>  <Unit label>
µM

>  <Result qualifier>
=

>  <IC50>
13

$$$$
>  <Smiles repr>
O=C(Cc1ccc(NC(=O)c2cncc(Cl)c2)cc1)NCc1ccccc1

>  <Target under test>
K562 leukemia cell line

>  <Unit label>
µM

>  <Result qualifier>
>

>  <IC50>
20

$$$$
